# Tested on: A498 renal
# PROTOCOL_SUMMARY: NCI-60 one-dose screen, 48 h (100 = growth as untreated, 0 = no growth, -100 = all killed)
# PARTICULARS: 10 µM unless noted
# Protocol: Growth inhibition of the A498 human tumor cell line is measured as a screen for anti-cancer activity. Cells are grown in 96 well plates and exposed to the test compound for 48 hours. Compounds are tested at a single concentration, which is 10^-5 M for most compounds. The reported endpoint is percent growth (GI% or GIPRCNT), where numbers from 0 - 100% represent growth inhibition, and numbers from -100% - 0 represent cell death. For example, a value of 40 represents 60% growth inhibition. […]
Compounds without any hit were thinned out: in the full panel of roughly 83,000, 20% have a hit.
Quick rule: growth of at least 80% means 1.0, below that means 0.0.

{"columns": ["MOLECULE", "GROUP"],
 "data": [
  ["COc1ccc(Cn2cc(C#N)c(N)c2C(C)=O)cc1", 1.0],
  ["COc1ccc(C(=O)c2c(N)c(C#N)cn2-c2ccc(Cl)cc2Cl)cc1", 1.0],
  ["Cc1[nH]c(C(=O)Nc2ccccc2OCc2cccc(C(=O)NCCN)c2)cc1Cl", 0.0],
  ["O=C(COc1ccc(/C=C2\\C(=O)Nc3cc(Cl)ccc32)cc1)Nc1ccc(Cl)cc1", 1.0],
  ["Cc1ccc(NC(=O)/C=C/c2ccc(OCCCOc3ccc4c(C)cc(=O)oc4c3)cc2)cc1", 0.0],
  ["N#Cc1c(-c2cccs2)cc(-c2cnccn2)nc1SCC(=O)N/N=C/c1ccc(Cl)cc1", 1.0],
  ["CC(=O)OCCCCN1C=C/C(=C\\C(=O)n2ccc3ccccc32)c2ccccc21", 1.0],
  ["CC(C)(C)Nc1nc2c(OCCc3ccccc3)cccn2c1-c1cccc(Oc2ccccc2)c1", 0.0],
  ["C#CCOc1cccc(/C(N)=N/C(N)=N/c2nc3ccccc3s2)c1", 1.0]
]}

---

# System: EKVX NSCLC
# PROTOCOL_SUMMARY: NCI-60 one-dose screen, 48 h
# PARTICULARS: 10 µM unless noted
About 83,000 compounds went through this panel and 20% of them were active in at least one assay; those are over-represented in the sample as a whole. The source made the active and inactive calls. The calls were made as follows: active = growth percent below 10; inactive = the rest.
Classes used: active, inactive

{"columns": ["MOLECULE", "GROUP"],
 "data": [
  ["COc1ccc2c(c1)c(-c1nn3cc(-c4ccncc4)nc3s1)cn2C", "inactive"],
  ["COC(=O)CNC(=O)c1cccc(-c2cc(=O)c3c(OC)c(OC)c(OC)cc3o2)c1", "inactive"],
  ["CCOC(=O)c1cccc(NC2=C(Cl)C(=O)c3nc(C)ccc3C2=O)c1", "inactive"],
  ["O=C(O)CC1CCN(c2ccc3nnc(Cl)n3n2)CC1", "inactive"],
  ["CN1CC[C@@H]2[C@@]3(C)CC[C@H](O)C(C)(C)[C@@H]3CC[C@@]2(C)[C@]2(C)CC[C@@]3(CO)CCC(C)(C)C[C@@H]3C12 (stereo not given in full)", "inactive"],
  ["CCN(CC)S(=O)(=O)c1ccc(-c2nc(C(Cl)Cl)nc3cc(C)nn23)cc1", "inactive"],
  ["CCCc1[nH]c(-c2cc(N)ccc2Cl)c2c1C(=O)CCCC2", "inactive"],
  ["COC(=O)[C@@H](Cc1c[nH]c2ccccc12)NC(=O)CCCCOc1cc(O)c2c(=O)cc(-c3ccccc3)oc2c1", "inactive"],
  ["N#Cc1c(-c2ccc(F)cc2)cc(-c2c[nH]c3ccccc23)nc1-c1c[nH]c2ccccc12", "inactive"],
  ["CCCCCCOC(=O)c1cc(-c2ccc(F)cc2)nc2ccccc12", "inactive"],
  ["COc1ccc(NC2=C(Br)C(=O)C(C)=C(C)C2=O)cc1OC", "inactive"],
  ["CN1CCN(c2ccc(Nc3nc(NCCCNS(=O)(=O)c4cccc5ccccc45)c4sccc4n3)cc2)CC1", "inactive"],
  ["CCCCSC1=C(Cl)CN(c2ccc(Cl)cc2)C1=O", "inactive"],
  ["Cc1ccc(/C(N)=N/C(N)=N/c2nc3ccccc3s2)cc1", "inactive"],
  ["O=[N+]([O-])c1ccc(NC(=S)NNC(=S)Nc2ccc(F)cc2)cc1", "inactive"],
  ["Cc1ccc2c(n1)C(=O)C(Cl)=C(Nc1cc(C(F)(F)F)cc(C(F)(F)F)c1)C2=O", "inactive"],
  ["COC(=O)c1cccc(NC2=CC(=O)C(C)=C(C)C2=O)c1", "inactive"],
  ["Cc1ccc(NC(=O)Nc2nc3ccc([N+](=O)[O-])cc3s2)cc1", "active"],
  ["C#CCN(C)CCCOc1ccc(NC(=O)CCCCCCC(=O)NO)cc1Cl", "inactive"],
  ["Cn1c(SCC(=O)c2ccc(Br)cc2)nc2ccccc2c1=O", "inactive"],
  ["C#Cc1nc(/C=C\\CCCCCCC(=O)NO)cs1", "inactive"],
  ["O=C(COc1ccc(/C=C2\\C(=O)Nc3cc(Cl)ccc32)cc1)Nc1ccc(Cl)cc1", "inactive"],
  ["CN1CCN(Cc2ccc(NC(=O)c3cncc(C#Cc4cnc5ccc(N6CCOCC6)nn45)c3)cc2C(F)(F)F)CC1", "active"],
  ["Cc1[nH]c(C(=O)Nc2ccc(C(=O)NCC3CCNCC3)cc2OC(C)C)c(Cl)c1Cl", "inactive"],
  ["Brc1cccc(-c2cc(-c3cnc4c(c3)OCCO4)n[nH]2)c1", "inactive"],
  ["CNC(=O)c1cc(N2CCc3cc(NC(=O)Nc4ccc(N5CCN(C)CC5)c(C(F)(F)F)c4)ccc32)ccn1", "inactive"],
  ["CN1CCN(Cc2ccc(NC(=O)c3cncc(C#Cc4cnc5ccc(O[C@@H]6CCOC6)nn45)c3)cc2C(F)(F)F)CC1", "active"],
  ["NNc1nnc2nc(Nc3ccccc3)nc(Nc3ccc(S(N)(=O)=O)cc3)n12", "inactive"],
  ["O=C(Nc1ccccc1)Nc1nc2ccc([N+](=O)[O-])cc2[nH]1", "inactive"],
  ["CC(=C(c1ccc(OCCN(C)C)cc1)c1ccc(OCCN(C)C)cc1)c1ccc(Cl)cc1", "active"],
  ["CCNC(=O)Oc1ccc(/C(=C(/C)c2ccc(OC)cc2)c2ccc(OCCN3CCCCCC3)cc2)cc1", "inactive"],
  ["CCN(CC)c1ccc(/C=N/NC(=O)c2ccc(S(N)(=O)=O)cc2)cc1", "inactive"],
  ["Cc1[nH]c(C(=O)Nc2ccccc2OCc2cccc(C(=O)NC3CCNC3)c2)c(Cl)c1Cl (stereo not given)", "inactive"],
  ["COc1cc(/C=C2/C(=O)Nc3ccc(Cl)cc32)ccc1OCc1ccc(Cl)cc1", "inactive"],
  ["N#Cc1c(-c2cccs2)cc(-c2cnccn2)nc1SCC(=O)N/N=C/c1ccc(Cl)cc1", "inactive"],
  ["NC1CC2(CCN(c3cnc(C(=O)Nc4cc(F)cc5cccnc45)cn3)CC2)C1", "inactive"],
  ["CCC1=Cc2c(OC)cccc2OC12C=Cc1c(OC)cccc1O2 (stereo not given)", "inactive"],
  ["O=C(CSc1nc2ccccc2c(=O)n1-c1ccccc1)N/N=C/c1ccc(Oc2ccc(Cl)cc2)cc1", "inactive"],
  ["Cc1ccc(C(=O)CSc2nnc(-c3ccc(-c4ccc(Cl)cc4)nc3C)o2)cc1", "inactive"],
  ["CCS(=O)(=O)Nc1ccc(C(=O)CC2(O)C(=O)Nc3ccccc32)cc1 (stereo not given)", "inactive"]
]}

---

# Tested on: NCI-H226 lung
# PROTOCOL_SUMMARY: NCI-60 one-dose screen, 48 h
# PARTICULARS: 10 µM unless noted
This is part of a sample that, as a whole, favours compounds with a hit. Of some 83,000 tested, about 20% had one in any assay. Calls of active or inactive are those of the source. Rule for the calls: active = growth percent below 10; inactive = the rest.
Classes used: active, inactive

{"columns": ["MOLECULE", "GROUP"],
 "data": [
  ["CCNC(=O)Oc1ccc(/C(=C(/C)c2ccc(Cl)cc2)c2ccc(OCCN3CCCCCC3)cc2)cc1", "inactive"],
  ["NC(=S)n1c(=O)n(-c2cccc(C(F)(F)F)c2)c(=O)c2cc(-c3ccc(F)cc3F)ccc21", "active"],
  ["COc1ccc(-c2cc(-c3ccc(N4CCOCC4)cc3)n3c(n2)nc2ccccc23)cc1OC", "inactive"],
  ["CC(=C(c1ccc(OCCCN(C)C)cc1)c1ccc(OCCCN(C)C)cc1)c1ccc(Cl)cc1", "inactive"],
  ["O=c1oc2ccc(-c3ccc(F)cc3F)cc2c(=O)n1-c1ccc(Br)cc1F", "inactive"],
  ["Cn1cc(-c2nnc(N)nc2-c2c[nH]c3ccc(Br)cc23)c2cc(Br)ccc21", "inactive"],
  ["COc1ccc2c(c1)c(/C=N/Nc1ccnc3cc(Cl)ccc13)cn2C", "active"],
  ["Brc1cccc(-c2cc(-c3cnc4c(c3)OCCO4)n[nH]2)c1", "inactive"],
  ["N#C/C(=C\\c1ccc(-c2ccc(Cl)cc2)o1)C(=O)Nc1ncc(Cc2ccc(Br)cc2)s1", "inactive"],
  ["NC1CC2(CCN(c3cnc(C(=O)Nc4cc(F)cc5cccnc45)cn3)CC2)C1", "inactive"],
  ["CC(C)=CCC[C@](C)(O)[C@H]1CC[C@]2(C)[C@@H]1CC[C@@H]1[C@@]3(C)CC[C@H](N)C(C)(C)[C@@H]3CC[C@]12C", "inactive"],
  ["COc1cc2cc(Oc3ccc(NC(=O)Nc4ccc(F)c(C(F)(F)F)c4)cc3)c(C)nc2cc1OCCN(C)C", "inactive"],
  ["CNC(=O)c1cc(-c2ccc(NC(=S)Nc3cccc(C(F)(F)F)c3)cc2)nc2cccnc12", "inactive"],
  ["Cc1ccc2c(n1)C(=O)C(Cl)=C(Nc1ccc(C)c(C)c1)C2=O", "inactive"],
  ["Cc1cc(C)cc(NC2=C(Cl)C(=O)c3nc(C)ccc3C2=O)c1", "inactive"],
  ["COc1ccc(/C=N/NC(=O)CSc2nc(-c3cnccn3)cc(-c3cccs3)c2C#N)cc1OC", "inactive"],
  ["CN(C)CC(=O)Nc1nc(-c2cccc(NS(=O)(=O)c3cccc4c(N(C)C)cccc34)c2)cs1", "inactive"],
  ["CCC(=C(c1ccc(OCCN2CCCCCC2)cc1)c1ccc(OCCN2CCCCCC2)cc1)c1ccc(Cl)cc1", "inactive"],
  ["COc1cc(C(=O)c2cc(C(C)=O)c3ccc(C)cn23)cc(OC)c1OC", "inactive"]
]}
